# studySystem: P110β (Homo sapiens)
# Sequence (P42338 whole entry, canonical isoform): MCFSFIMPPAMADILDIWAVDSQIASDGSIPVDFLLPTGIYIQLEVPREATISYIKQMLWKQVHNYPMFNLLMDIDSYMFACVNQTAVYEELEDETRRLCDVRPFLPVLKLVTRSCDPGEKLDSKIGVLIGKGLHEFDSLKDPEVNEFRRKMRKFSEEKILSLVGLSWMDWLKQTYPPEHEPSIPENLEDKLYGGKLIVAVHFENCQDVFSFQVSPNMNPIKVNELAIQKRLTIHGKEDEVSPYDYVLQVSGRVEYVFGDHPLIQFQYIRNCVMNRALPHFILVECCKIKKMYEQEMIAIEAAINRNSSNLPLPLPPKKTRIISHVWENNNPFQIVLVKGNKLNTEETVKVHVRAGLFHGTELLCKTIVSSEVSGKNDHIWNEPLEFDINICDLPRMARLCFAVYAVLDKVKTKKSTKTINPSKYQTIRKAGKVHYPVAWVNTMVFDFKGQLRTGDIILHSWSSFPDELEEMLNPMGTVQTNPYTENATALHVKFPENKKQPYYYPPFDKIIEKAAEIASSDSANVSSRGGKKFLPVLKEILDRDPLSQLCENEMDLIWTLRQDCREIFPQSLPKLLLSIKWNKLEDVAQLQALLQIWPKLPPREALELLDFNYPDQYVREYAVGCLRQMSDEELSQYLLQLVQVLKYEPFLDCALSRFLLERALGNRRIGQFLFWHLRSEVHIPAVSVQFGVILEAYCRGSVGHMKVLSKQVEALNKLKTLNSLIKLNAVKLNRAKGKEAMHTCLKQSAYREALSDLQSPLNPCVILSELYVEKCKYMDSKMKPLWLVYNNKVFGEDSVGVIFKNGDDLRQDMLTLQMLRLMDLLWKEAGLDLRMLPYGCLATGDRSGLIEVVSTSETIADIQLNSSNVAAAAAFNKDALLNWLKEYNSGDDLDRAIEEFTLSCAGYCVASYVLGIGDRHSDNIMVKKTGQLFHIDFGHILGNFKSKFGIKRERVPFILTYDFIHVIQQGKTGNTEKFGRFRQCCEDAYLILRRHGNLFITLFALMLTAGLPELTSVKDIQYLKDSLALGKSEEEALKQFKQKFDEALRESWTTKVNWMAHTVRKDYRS
# Sequence (P27986 whole entry partner, canonical isoform): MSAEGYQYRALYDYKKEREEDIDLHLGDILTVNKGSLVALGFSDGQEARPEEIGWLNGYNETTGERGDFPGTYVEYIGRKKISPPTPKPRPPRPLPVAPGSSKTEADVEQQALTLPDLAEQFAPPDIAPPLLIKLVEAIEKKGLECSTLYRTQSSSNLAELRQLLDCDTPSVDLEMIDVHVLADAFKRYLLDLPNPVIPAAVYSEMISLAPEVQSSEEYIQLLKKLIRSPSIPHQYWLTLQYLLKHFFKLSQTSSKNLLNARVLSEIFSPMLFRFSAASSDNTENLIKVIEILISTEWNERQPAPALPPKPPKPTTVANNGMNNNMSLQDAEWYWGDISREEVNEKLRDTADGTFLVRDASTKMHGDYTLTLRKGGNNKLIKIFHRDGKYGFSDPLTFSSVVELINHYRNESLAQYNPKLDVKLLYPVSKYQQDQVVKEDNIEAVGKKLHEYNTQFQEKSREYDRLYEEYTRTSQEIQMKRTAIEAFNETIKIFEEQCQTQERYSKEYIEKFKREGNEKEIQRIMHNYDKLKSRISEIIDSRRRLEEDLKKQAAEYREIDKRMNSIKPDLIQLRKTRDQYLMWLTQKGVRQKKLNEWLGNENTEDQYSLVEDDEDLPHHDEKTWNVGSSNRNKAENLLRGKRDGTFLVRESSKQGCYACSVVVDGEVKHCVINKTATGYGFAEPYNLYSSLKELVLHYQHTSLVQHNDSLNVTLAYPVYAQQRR
# testDetails: Fluorescent (HTRF) determination of PI3K enzyme activity, β isoform
# Format: biochemical
parameter: inhibition at 1 µM

INSERT INTO measurements (molecule, parameter, result) VALUES
  ('CC(c1oc2ccccc2c(=O)c1-c1cccc(F)c1)n1nc(-c2ccc(Cl)s2)c2c(N)ncnc21 (centres unmarked) [Example 152]', 'inhibition at 1 µM', '< 25%'),
  ('CC(c1oc2ccccc2c(=O)c1-c1cccc(F)c1)n1nc(-c2ccc3c(c2)OCCO3)c2c(N)ncnc21 (centres unmarked) [Example 133]', 'inhibition at 1 µM', '50 to 100%'),
  ('Nc1ncnc2c1c(-c1cc(O)cc(F)c1)nn2Cc1oc2ccccc2c(=O)c1-c1cccc(F)c1 [Example 68]', 'inhibition at 1 µM', '25 to 50%'),
  ('Cc1c[nH]c2cc(-c3nn(C(C)c4oc5ccccc5c(=O)c4-c4cccc(F)c4)c4ncnc(N)c34)ccc12 (centres unmarked) [Example 111]', 'inhibition at 1 µM', '< 25%'),
  ('Cc1n[nH]c2cc(-c3nn(C(C)c4oc5ccc(F)cc5c(=O)c4-c4cccc(F)c4)c4ncnc(N)c34)ccc12 (centres unmarked) [Example 108]', 'inhibition at 1 µM', '25 to 50%'),
  ('CCCOc1cccc(-c2nn(C(C)c3oc4ccccc4c(=O)c3-c3cccc(F)c3)c3ncnc(N)c23)c1 (centres unmarked) [Example 154]', 'inhibition at 1 µM', '< 25%'),
  ('COc1ncc(-c2nn(C(C)c3oc4ccccc4c(=O)c3-c3cccc(F)c3)c3ncnc(N)c23)cn1 (centres unmarked) [Example 112]', 'inhibition at 1 µM', '< 25%'),
  ('CCOc1ccc(-c2nn(C(C)c3oc4ccccc4c(=O)c3-c3cccc(F)c3)c3ncnc(N)c23)cc1 (centres unmarked) [Example 156]', 'inhibition at 1 µM', '25 to 50%'),
  ('C[C@H](Nc1ncnc2[nH]cnc12)c1oc2ccccc2c(=O)c1-c1cccc(F)c1 [Example 47]', 'inhibition at 1 µM', '25 to 50%'),
  ('Cc1n[nH]c2cc(-c3nn([C@H](C)c4oc5ccccc5c(=O)c4-c4cccc(F)c4)c4ncnc(N)c34)ccc12 (single isomer, unassigned) [Example 128]', 'inhibition at 1 µM', '< 25%'),
  ('CC(c1oc2ccccc2c(=O)c1-c1ccccc1)n1nc(-c2cccc(O)c2)c2c(N)ncnc21 (centres unmarked) [Example 42]', 'inhibition at 1 µM', '25 to 50%'),
  ('Cc1noc(C)c1-c1nn(C(C)c2oc3ccccc3c(=O)c2-c2cccc(F)c2)c2ncnc(N)c12 (centres unmarked) [Example 153]', 'inhibition at 1 µM', '< 25%'),
  ('COc1cc(OC)cc(-c2nn(C(C)c3oc4ccccc4c(=O)c3-c3cccc(F)c3)c3ncnc(N)c23)c1 (centres unmarked) [Example 130]', 'inhibition at 1 µM', '< 25%'),
  ('CC(c1oc2ccccc2c(=O)c1-c1cccc(F)c1)n1nc(-c2ccc3c(c2)OCCCO3)c2c(N)ncnc21 (centres unmarked) [Example 136]', 'inhibition at 1 µM', '25 to 50%');

====

parameter: melting point

INSERT INTO assay_data (molecule, parameter, result) VALUES
  ('Nc1ncnc2c1c(-c1cccc3[nH]ncc13)nn2Cc1oc2ccccc2c(=O)c1-c1ccccc1', 'melting point', '248 to 252 °C'),
  ('COc1ccc(NC(C)c2oc3ccc(F)cc3c(=O)c2-c2cccc(F)c2)cc1 (stereo not shown)', 'melting point', '152 to 156 °C'),
  ('CC(C)Oc1cccc(-c2nn(C(C)c3oc4ccccc4c(=O)c3-c3cccc(F)c3)c3ncnc(N)c23)c1 (stereo not shown)', 'melting point', '153 to 157 °C'),
  ('CCC(c1oc2ccccc2c(=O)c1-c1ccc(F)cc1)n1cnc2c(N)ncnc21 (stereo not shown)', 'melting point', '223 to 227 °C'),
  ('Cc1cccc2c1ncn2Cc1oc2ccccc2c(=O)c1-c1ccccc1', 'melting point', '204 to 208 °C'),
  ('Cc1n[nH]c2cc(-c3nn(C(C)c4oc5ccc(F)cc5c(=O)c4-c4cccc(F)c4)c4ncnc(N)c34)ccc12 (stereo not shown)', 'melting point', '234 to 236 °C'),
  ('CC(Sc1ncnc2[nH]cnc12)c1oc2ccc(Br)cc2c(=O)c1-c1ccccc1 (stereo not shown)', 'melting point', '234 to 237 °C'),
  ('CC(c1oc2ccccc2c(=O)c1-c1cccc(F)c1)n1nc(-c2cccc(O)c2)c2c(N)ncnc21 (stereo not shown) [Example 51a]', 'melting point', '282 to 285 °C'),
  ('CC(c1oc2ccccc2c(=O)c1-c1cccc(F)c1)n1nc(-c2ccc(OC(F)(F)F)cc2)c2c(N)ncnc21 (stereo not shown)', 'melting point', '224 to 226 °C'),
  ('CC(c1oc2ccccc2c(=O)c1-c1cccc(F)c1)n1nc(-c2ccc(N)cc2)c2c(N)ncnc21 (stereo not shown) [Example 107a]', 'melting point', '91 to 94 °C'),
  ('O=c1c(-c2ccccc2)c(Cn2cnc3ccccc32)oc2ccc(Br)cc12', 'melting point', '192 to 197 °C'),
  ('O=c1c(-c2ccccc2)c(CNc2ncnc3[nH]cnc23)oc2ccc(Br)cc12', 'melting point', '151 to 154 °C'),
  ('O=c1c(-c2ccccc2)c(Cn2cnc3c(Cl)ncnc32)oc2ccccc12', 'melting point', '187 to 190 °C'),
  ('CC(c1oc2ccccc2c(=O)c1-c1ccccc1)n1nc(C#CC(C)(C)O)c2c(N)ncnc21 (stereo not shown)', 'melting point', '109 to 113 °C'),
  ('Cc1cccc2c1ncn2Cc1oc2ccc(Br)cc2c(=O)c1-c1ccccc1', 'melting point', '176 to 179 °C'),
  ('C[C@H](Nc1ncnc2[nH]cnc12)c1oc2ccccc2c(=O)c1-c1cccc(F)c1', 'melting point', '135 to 138 °C');
